Where do the numbers come from? From the supplement of paper PMC9732359.

- Method Notes: protein stability index of a GFP-peptide fusion (yeast GPS) (PSI 1-4); higher = more stable; sorted into four equal gates, so the index is relative within each strain
- Test Parameters: san1∆
Observable: protein stability index
Could you keep your reply to the number by itself?

[ask] Item under review: DSRTTTGAYIANRVTDK [PRE3] . Reported protein stability index?
[reply] 2.89

[ask] Value lookup for protein stability index; key = SPQQFLRAHTDDSRNPD [PRE2]
[reply] 2.7

[ask] Tell me the measured protein stability index of KFNNTQRESQIGAAELN [SNF12] , please.
[reply] 2.87

[ask] Request the reported protein stability index associated with FSFGAKANEKKESDESK [YJL041W/NSP1]
[reply] 3.52

[ask] Would you kindly share the measured protein stability index for LKCAERQLTSMEFSNLY [NUT1] ?
[reply] 1.65

[ask] Which protein stability index value is on record for LQYIIHDTLNNEIANSI [BRR2] ?
[reply] 2.86

[ask] Look at this sequence and give its reported protein stability index. KRADISKRRITEELSIT [SMC1]
[reply] 1.72

[ask] Param item = VRELFEMARTKKACIIF [RPT1] ; retrieve measured protein stability index.
[reply] 1.08

[ask] Given the entry ILGIAGEDFAVLAGDTR [PRE7] , report its measured protein stability index.
[reply] 3.32

[ask] Need protein stability index of VTMGAKDKLREFIPHST [RPN6] , thanks.
[reply] 2.96

[ask] Sample KDVAKPTGPKTAIDKNG [FAS2] — what was its protein stability index?
[reply] 3.06

[ask] What value of protein stability index has been recorded for this entry: SALTSPTDSSKILQKRS [SIR3]
[reply] 2.92

[ask] What measured protein stability index goes with ALIENWAADSVSSRVRG [FAS1] ?
[reply] 2.84

[ask] Name the reported protein stability index value associated with the sequence AQGDPNLEPLIAKLVAV [NUT1]
[reply] 3.08

[ask] Using the record for ANLPANSSTSPAPSIPS [YLR335W/NUP2] , report its protein stability index.
[reply] 2.95

[ask] Please give the measured protein stability index for this sequence: LFVFTEGWPKFQDTLYK [QCR10]
[reply] 3.08

[ask] // protein stability index lookup, key: LVTCEGSEEKAFVPKKR [SRP54]
[reply] 1.62

[ask] Bench note: what protein stability index did VPNSIGNIFSNIGTPSF [SNF5] show?
[reply] 1.33

[ask] Any idea what protein stability index was measured for HIILDTISECNLYDDVK [MED1] ?
[reply] 3.19

[ask] I have this sequence here, NSSTSSTSNTPSPPNVI [YDL088C/ASM4] , and I need its recorded protein stability index.
[reply] 2.7

[ask] Field request: protein stability index | item: KFIALCEQQPSQEREFS [SIN4]
[reply] 2.67

[ask] Look up protein stability index: ARIFEFPKTTVAALRFT [RPL18A]
[reply] 2

[ask] Name the recorded protein stability index for NLPILKNHFRKHWQERV [RPL13A] .
[reply] 2.31

[ask] Give the measured protein stability index of ELDRAAMNDKDLTMGQV [RPO21] .
[reply] 2.8
